Provenance of the data: paper PMC3445262

biological target: CB2 W194Y mutant receptor in HEK293 cells (Homo sapiens, UniProt P34972, W194Y)
Sequence (P34972 whole entry W194Y): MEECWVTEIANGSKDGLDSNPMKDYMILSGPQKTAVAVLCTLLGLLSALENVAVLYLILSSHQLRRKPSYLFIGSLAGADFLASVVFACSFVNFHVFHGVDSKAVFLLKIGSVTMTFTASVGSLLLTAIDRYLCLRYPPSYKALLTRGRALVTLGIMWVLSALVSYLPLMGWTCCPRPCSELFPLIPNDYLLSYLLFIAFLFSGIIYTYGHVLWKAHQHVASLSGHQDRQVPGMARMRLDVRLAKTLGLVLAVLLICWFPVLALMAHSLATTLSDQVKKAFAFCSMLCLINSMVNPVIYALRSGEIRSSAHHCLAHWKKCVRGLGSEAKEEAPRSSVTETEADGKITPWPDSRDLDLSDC
ENDPOINT: EC50 (µM)

In [3]: df
Out[3]:
                           structure_string                                    system  endpoint  recorded_result
0  C=C[C@@]1(C)CC(=O)[C@]2(O)[C@@]3(C)[C@@H](O)CCC(C)(C)[C@@H]3[C@H](O)[C@H](OC(C)=O)[C@@]2(C)O1  CB2 W194Y mutant receptor in HEK293 cells (Homo sapiens, UniProt P34972, W194Y)      EC50             2.02

* * *

molecular target: CB2 W194A mutant receptor in HEK293 cells (Homo sapiens, UniProt P34972, W194A)
Sequence (P34972 whole entry W194A): as the sequence (P34972 whole entry W194Y) above, with Y194A counted along it
ENDPOINT: EC50 (nM)

                                   compound  value_unit  recorded_result
0  C=C[C@@]1(C)CC(=O)[C@]2(O)[C@@]3(C)[C@@H](O)CCC(C)(C)[C@@H]3[C@H](O)[C@H](OC(C)=O)[C@@]2(C)O1 [Forskolin, forskolin]          nM             2420

* * *

target: CB2 WT receptor in HEK293 cells (Homo sapiens, UniProt P34972)
Sequence (P34972 whole entry): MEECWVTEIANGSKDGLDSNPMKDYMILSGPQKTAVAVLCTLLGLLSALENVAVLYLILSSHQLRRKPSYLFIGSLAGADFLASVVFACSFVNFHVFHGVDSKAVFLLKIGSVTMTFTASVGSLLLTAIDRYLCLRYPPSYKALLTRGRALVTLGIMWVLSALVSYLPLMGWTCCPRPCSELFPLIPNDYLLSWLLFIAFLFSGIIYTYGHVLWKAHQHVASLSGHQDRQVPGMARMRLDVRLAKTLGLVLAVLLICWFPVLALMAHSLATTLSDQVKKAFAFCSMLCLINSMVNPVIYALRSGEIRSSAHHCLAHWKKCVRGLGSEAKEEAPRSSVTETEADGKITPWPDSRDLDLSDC
pEC50: −log10 of the molar value.
ENDPOINT: pEC50

>>> df
                           structure_string  recorded_result
0  C=C[C@@]1(C)CC(=O)[C@]2(O)[C@@]3(C)[C@@H](O)CCC(C)(C)[C@@H]3[C@H](O)[C@H](OC(C)=O)[C@@]2(C)O1             5.88
